Reported fnctn (relative binding signal under isomolar conditions) values for the following binders.
Target: T1, MAT CR12 (human, UniProt Q9Y5Y6 452-524)
T1 construct: also called ST14 CR12; matriptase CR12
T1 sequence: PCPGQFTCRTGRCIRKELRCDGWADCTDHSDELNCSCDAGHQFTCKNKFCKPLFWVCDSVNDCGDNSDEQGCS
Test: binding of truncated MatRAP1 forms to MAT CR12, relative signal under isomolar conditions
reportedEndpoint: fnctn (relative binding signal under isomolar conditions)

[
  {
    "binder": "MatRAP1 truncated variant, amino acids 243-313 (71 amino acids) (ligand, also called best truncated variant; not shown: N-terminal hexahistidine and S-peptide tags of pET30(+)a) FREELKHFGAKIERHNHYQKQLEIAHEWLRHAESVGDGERVSRSREKHALLEGRTKELGYTVKKHLQDLSG",
    "valueMeasured": 2.7
  },
  {
    "binder": "MatRAP1 truncated by 10 amino acids at the N-terminus (ligand, Range derived: d3 starts at 201 and 10 residues were removed; also called MatRAP1 N-10; not shown: N-terminal hexahistidine and S-peptide tags of pET30(+)a) GYSTEAEFEEPRVIDLWDLAQSANLTDKELEAFREELKHFGAKIERHNHYQKQLEIAHEWLRHAESVGDGERVSRSREKHALLEGRTKELGYTVKKHLQDLSGRISRAR",
    "valueMeasured": 0.1
  },
  {
    "binder": "MatRAP1 truncated by 31 amino acids at the N-terminus (ligand, Range derived from the number of residues removed; also called MatRAP1 N-31; not shown: N-terminal hexahistidine and S-peptide tags of pET30(+)a) SANLTDKELEAFREELKHFGAKIERHNHYQKQLEIAHEWLRHAESVGDGERVSRSREKHALLEGRTKELGYTVKKHLQDLSGRISRAR",
    "valueMeasured": 0.35
  },
  {
    "binder": "MatRAP1 d3 (ligand, Selected by phage panning on MAT CR23; also called RAP vMA; not shown: N-terminal hexahistidine and S-peptide tags of pET30(+)a) LDRLRRVSHQGYSTEAEFEEPRVIDLWDLAQSANLTDKELEAFREELKHFGAKIERHNHYQKQLEIAHEWLRHAESVGDGERVSRSREKHALLEGRTKELGYTVKKHLQDLSGRISRAR",
    "valueMeasured": 0.22
  }
]
